From: ChEMBL document CHEMBL1145990

Tested on: A-427
Assay: In vitro antitumor effects against human A-427 cell lines.
Format: functional, cell-based
Response field label: string, one of TRUE (IC50 strictly below 3 µM) or FALSE.

structure=COc1cnc2c3c(nccc13)-c1ncccc1C2=O category=TRUE
structure=COc1cc(OC)c2c(n1)C(=O)c1nccc3ccnc-2c13 category=FALSE
structure=COc1ccnc2c1-c1nccc3ccnc(c13)C2=O category=TRUE
structure=COc1ccc2c(n1)C(=O)c1nccc3ccnc-2c13 category=FALSE

###

We begin with a simple list: items and their reported pIC50.
Tested on: A549
Assay: In vitro antitumor effects against human A-549 cell lines.
Type: functional, cell-based
pIC50: −log10 of the molar value.
endpointName: pIC50

structure=O=C1c2ncccc2-c2nccc3ccnc1c23 systemtested=A549 numericreadout=5.52
structure=COc1ccc2c(n1)-c1nccc3ccnc(c13)C2=O systemtested=A549 numericreadout=5.05
structure=O=C1c2c(Cl)ccnc2-c2nccc3ccnc1c23 systemtested=A549 numericreadout=6.10
structure=CN(C)c1ccnc2c1-c1nccc3ccnc(c13)C2=O systemtested=A549 numericreadout=6.00
structure=COc1ccnc2c1-c1nccc3c(OC)cnc(c13)C2=O systemtested=A549 numericreadout=8.30

###

System: A-427
Assay: In vitro antitumor effects against human A-427 cell lines.
Assay type: functional, cell-based
pIC50: −log10 of the molar value.
// false strictly below 6 in pIC50; true otherwise

structure=COc1ccnc2c1-c1nccc3c(OC)cnc(c13)C2=O systemtested=A-427 category=true
structure=O=C1c2nccc(O)c2-c2nccc3ccnc1c23 systemtested=A-427 category=false
structure=COc1ccc2c(n1)-c1nccc3ccnc(c13)C2=O systemtested=A-427 category=false
structure=CN(C)c1cc(Cl)nc2c1-c1nccc3ccnc(c13)C2=O systemtested=A-427 category=false
structure=COc1ccc2c(n1)C(=O)c1ncc(OC)c3ccnc-2c13 systemtested=A-427 category=true
structure=O=C1c2cccnc2-c2nccc3ccnc1c23 systemtested=A-427 category=false
structure=COc1cnc2c3c(nccc13)-c1cccnc1C2=O systemtested=A-427 category=true

###

Test system: A549
Assay: In vitro antitumor effects against human A-549 cell lines.
Assay type: functional, cell-based
Response field label: string, one of condition met (IC50 strictly below 800 nM) or condition not met.

structure=COc1ccnc2c1-c1nccc3ccnc(c13)C2=O category="condition met"
structure=COc1cc(OC)c2c(n1)C(=O)c1nccc3ccnc-2c13 category="condition not met"
structure=COc1cnc2c3c(nccc13)-c1ncccc1C2=O category="condition met"
structure=CN(C)c1cc(Cl)nc2c1-c1nccc3ccnc(c13)C2=O category="condition not met"
structure=COc1cnc2c3c(nccc13)-c1cccnc1C2=O category="condition met"
structure=COc1ccc2c(n1)C(=O)c1nccc3ccnc-2c13 category="condition not met"
structure=COc1cnc2c3c(nccc13)-c1c(N(C)C)ccnc1C2=O category="condition not met"
structure=COc1ccnc2c1C(=O)c1ncc(OC)c3ccnc-2c13 category="condition not met"
structure=O=C1c2nccc(O)c2-c2nccc3ccnc1c23 category="condition not met"

###

Test system: A-427
Experiment: In vitro antitumor effects against human A-427 cell lines.
Type: functional, cell-based
pIC50: −log10 of the molar value.
endpointName: pIC50

structure=O=C1c2ncccc2-c2nccc3ccnc1c23 numericreadout=6.15
structure=COc1ccnc2c1C(=O)c1ncc(OC)c3ccnc-2c13 numericreadout=6.10
structure=O=C1c2c(Cl)ccnc2-c2nccc3ccnc1c23 numericreadout=6.15
structure=CN(C)c1ccnc2c1-c1nccc3ccnc(c13)C2=O numericreadout=6.05
structure=COc1ccnc2c1C(=O)c1nccc3ccnc-2c13 numericreadout=6.10
